- System: SW684
- Assay Name: relative viability vs DMSO control (72 h) (fraction); higher = more viable cells
- Run Conditions: 0.1235 µM
Measured Parameter: relative viability

1. Cc1cc2c(F)c(Oc3ncnn4cc(OC[C@@H](C)OC(=O)[C@H](C)N)c(C)c34)ccc2[nH]1 [Brivanib_alaninate] :: 1.09
2. CO[C@H]1C[C@@H]2CC[C@@H](C)[C@@](O)(O2)C(=O)C(=O)N2CCCC[C@H]2C(=O)O[C@H]([C@H](C)C[C@@H]2CC[C@@H](OC(=O)C(C)(CO)CO)[C@H](OC)C2)CC(=O)[C@H](C)/C=C(\C)[C@@H](O)[C@@H](OC)C(=O)[C@H](C)C[C@H](C)/C=C/C=C/C=C/1C :: 0.752
